system: Vero normal kidney cells; assay: MTT cytotoxicity assay on Vero cells; settings: read-out: IC50, cytotoxic effect on Vero cell viability, 72 h
Readout Kind: IC50

Per the reported Vero normal kidney cells data, CCn1c(=O)c(-n2cnc3ccccc32)nc2ccccc21 [CPD15] has IC50 of > 50 µM

----------
test system: H1975 lung cancer cells expressing L858R/T790M EGFR; experiment: MTT cytotoxicity assay on H1975 cells; type: cell-based, Human; conditions: MTT, 72 h; read-out: IC50, cytotoxic effect on H1975 cell viability
Readout Kind: pIC50
Just so you know, pIC50 here is -log10 of the concentration in molar units; reply with that number alone.

pIC50 in this record for CCn1c(=O)c(-n2cnc3ccccc32)nc2ccccc21 : 4.51

----------
assay: in vitro; conditions: monkey, IC50, cytotoxic effect on Vero cell viability
Readout Kind: IC50 at 72 h

So for C=CC(=O)Nc1cc(Nc2nccc(-c3cn(C)c4ccccc34)n2)c(OC)cc1N(C)CCN(C)C [Osimertinib, reference compound] , the logged IC50 at 72 h turned out to be > 100 µM

----------
molecular target: EGFR (L858R/T790M/C797S) TK (Homo sapiens, UniProt P00533, C797S/L858R/T790M); assay: ADP-Glo kinase assay, EGFR tyrosine kinase inhibition; assay type: biochemical; details: enzyme-based assay, mean ± SEM, triplicate; read-out: IC50, kinase inhibitory activity against EGFR (L858R/T790M/C797S)
Sequence (P00533 25-1210 T790M/C797S/L858R): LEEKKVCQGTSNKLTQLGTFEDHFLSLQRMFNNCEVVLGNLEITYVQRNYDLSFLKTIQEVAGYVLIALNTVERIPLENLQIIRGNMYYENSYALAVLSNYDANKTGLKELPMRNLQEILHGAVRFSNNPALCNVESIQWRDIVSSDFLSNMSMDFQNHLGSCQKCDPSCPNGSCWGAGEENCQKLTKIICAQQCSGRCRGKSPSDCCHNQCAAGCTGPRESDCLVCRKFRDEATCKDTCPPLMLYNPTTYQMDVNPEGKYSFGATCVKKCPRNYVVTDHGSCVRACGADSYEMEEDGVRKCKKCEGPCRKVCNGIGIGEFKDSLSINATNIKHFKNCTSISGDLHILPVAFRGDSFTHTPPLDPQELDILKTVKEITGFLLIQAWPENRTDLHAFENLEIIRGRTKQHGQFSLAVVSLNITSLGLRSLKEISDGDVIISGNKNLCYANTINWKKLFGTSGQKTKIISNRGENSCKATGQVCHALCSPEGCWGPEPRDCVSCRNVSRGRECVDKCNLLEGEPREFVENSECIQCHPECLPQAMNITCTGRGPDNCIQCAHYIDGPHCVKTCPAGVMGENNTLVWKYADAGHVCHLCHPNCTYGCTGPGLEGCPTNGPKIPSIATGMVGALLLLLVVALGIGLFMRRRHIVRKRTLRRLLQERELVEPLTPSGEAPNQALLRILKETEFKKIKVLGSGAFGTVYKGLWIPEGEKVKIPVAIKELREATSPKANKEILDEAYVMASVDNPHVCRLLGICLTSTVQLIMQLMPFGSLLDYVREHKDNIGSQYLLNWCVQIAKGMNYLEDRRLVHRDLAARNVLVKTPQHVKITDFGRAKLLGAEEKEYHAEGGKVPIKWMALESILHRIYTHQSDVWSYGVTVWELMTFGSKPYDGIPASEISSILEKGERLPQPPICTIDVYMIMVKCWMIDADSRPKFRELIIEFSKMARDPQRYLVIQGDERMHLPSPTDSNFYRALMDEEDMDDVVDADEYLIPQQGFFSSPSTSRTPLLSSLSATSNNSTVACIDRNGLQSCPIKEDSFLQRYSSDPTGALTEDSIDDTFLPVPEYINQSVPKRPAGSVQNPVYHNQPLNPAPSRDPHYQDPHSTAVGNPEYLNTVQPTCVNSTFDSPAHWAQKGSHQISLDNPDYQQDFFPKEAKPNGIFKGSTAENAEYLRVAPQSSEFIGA
Readout Kind: pIC50
FYI, pIC50 means -log10 of a concentration in mol per litre.

1. O=c1c(-n2cncn2)nc2ccccc2n1Cc1ccccc1	8.52
2. O=c1[nH]c2ccccc2nc1OCc1ccccc1	7.98

# context switch: different compound, same pIC50
// pIC50 lookup, compound = CCOc1nc2ccccc2n(Cc2ccccc2)c1=O , result: 8.42

----------
Readings of IC50 at 72 h for the listed compounds
assay: MTT cytotoxicity assay on Vero cells; conditions: monkey, Vero cells (normal kidney epithelial cell line), IC50, cytotoxic effect on Vero cell viability

1) O=c1c(-n2cncn2)nc2ccccc2n1Cc1ccccc1 [CPD4]	> 20 µM
2) CCOc1nc2ccccc2n(Cc2ccccc2)c1=O [CPD21, 1-Benzyl-3-ethoxyquinoxalin-2(1H)-one]	> 100 µM
3) O=c1[nH]c2ccccc2nc1OCc1ccccc1 [CPD16]	> 100 µM

Next, consider the following compound.
The compound identified as CCn1c(=O)c(-n2cnc3ccccc32)nc2ccccc21 [CPD15] registered its IC50 at 72 h at > 100 µM

----------
molecular target: EGFR (L858R/T790M/C797S) TK (Homo sapiens, UniProt P00533, C797S/L858R/T790M); experiment: ADP-Glo kinase assay, EGFR tyrosine kinase inhibition; assay type: biochemical
Readout Kind: pIC50
A value of pIC50 is the negative decimal logarithm of a concentration given in moles per litre.

The value of pIC50 recorded for CCn1c(=O)c(-n2cnc3ccccc32)nc2ccccc21 when tested on EGFR (L858R/T790M/C797S) TK (Homo sapiens, UniProt P00533, C797S/L858R/T790M) reads 8.19
